Biological target: seabream Oxtrb (Sparus aurata, UniProt R9WVY7)
Assay: Activation of seabream Oxtrb in transfected HEK293T cells (pCRE-luc / pSRE-luc reporters, Fluo-4 AM Ca2+)
Format: cell-based, gilthead seabream (Sparus aurata)
Settings: Oxt on Oxtrb, HEK293T; read-out: approximate EC50 on cognate receptor
Ends that are not written are not given here.

>  <substance>
CYISNCPIG-NH2 (ends and bridges not checked) [Oxt, synthetic teleost nonapeptide oxytocin (formerly isotocin)]

>  <EC50>
~10 nM

$$$$

###

Reported values of pIC50 for individual entries
Target: seabream Avpr1aa (Sparus aurata, UniProt R9X0I6)
Sequence (R9X0I6 1-388): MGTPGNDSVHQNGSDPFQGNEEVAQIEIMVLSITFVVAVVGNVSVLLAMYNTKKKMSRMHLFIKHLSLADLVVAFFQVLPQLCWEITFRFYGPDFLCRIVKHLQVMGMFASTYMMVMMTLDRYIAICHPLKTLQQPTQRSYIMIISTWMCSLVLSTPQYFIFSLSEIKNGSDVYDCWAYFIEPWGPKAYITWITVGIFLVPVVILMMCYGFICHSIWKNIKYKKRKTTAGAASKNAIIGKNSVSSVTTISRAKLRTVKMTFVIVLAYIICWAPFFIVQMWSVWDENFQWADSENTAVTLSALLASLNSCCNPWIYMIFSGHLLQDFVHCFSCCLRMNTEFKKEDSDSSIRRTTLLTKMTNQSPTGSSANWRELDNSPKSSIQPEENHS
Test: Activation of seabream Avpr1aa in transfected HEK293T cells (pCRE-luc / pSRE-luc reporters, Fluo-4 AM Ca2+)
Conditions: antagonist 1 h before 10^-8 M Avp; HEK293T; read-out: IC50, inhibition of Avpr1aa activation
pIC50: −log10 of the molar value.
reported property: pIC50

>  <compound>
Cc1ccccc1C(=O)Nc1ccc(C(=O)N2CCCC(O)c3cc(Cl)ccc32)c(C)c1 (centres unmarked)

>  <system under test>
seabream Avpr1aa (Sparus aurata, UniProt R9X0I6)

>  <reported property>
pIC50

>  <measured result>
~9.00

$$$$
>  <compound>
COc1ccc(S(=O)(=O)N2c3ccc(Cl)cc3[C@](O)(c3ccccc3Cl)[C@@H]2C(=O)N2CCC[C@H]2C(N)=O)cc1OC

>  <system under test>
seabream Avpr1aa (Sparus aurata, UniProt R9X0I6)

>  <reported property>
pIC50

>  <measured result>
~9.00

$$$$
